Where do the numbers come from? From patent US5190921A.

Measured EC50 of individual entries
molecular target: guinea pig pancreatic acini; test: Pancreatic amylase liberation test; settings: acini incubated 30 minutes at 37° C.; mean of three experiments in triplicate; read-out: Amylase secretion from guinea pig pancreatic acini, Agonist activity EC50
*1 amine or outer side, *2 acyl side, *3 side chain or, on linkers, in order; H or OH if unused. Where a SMILES comes first, the peptide text is derived from it. [ ]: non-standard residue; d: D form. The star is where a group is joined. X1 = CCCC[C@@H](NC(=O)CC(=O)*)NC(=O)[C@H](Cc1ccc(CS(=O)(=O)O)cc1)NC(C)=O; Phe(4-CH2SO3H) = N[C@@H](Cc1ccc(CS(=O)(=O)O)cc1)C(=O)O; X2 = O=C([C@@H](Cc1ccc(CS(=O)(=O)O)cc1)N[*:1])[*:2]; sY = N[C@@H](Cc1ccc(OS(=O)(=O)O)cc1)C(=O)O; NMeNle = CCCC[C@H](NC)C(=O)O; Nle = CCCC[C@H](N)C(=O)O; Boc = CC(C)(C)OC(=O)*

# compound, target, EC50
records = [
    ("CCCC[C@H](NC(=O)[C@H](Cc1c[nH]c2ccccc12)NC(=O)CNC(=O)[C@H](CCCC)NC(=O)[C@@H](Cc1ccc(CS(=O)(=O)O)cc1)NC(C)=O)C(=O)N[C@@H](CC(=O)O)C(=O)N[C@@H](Cc1ccccc1)C(N)=O [Example 14] (Ac-[X2][Nle]GW[Nle]DF-NH2)", "guinea pig pancreatic acini", "1.6 nM"),
    ("CCCC[C@@H](NC(=O)CC(=O)N[C@@H](Cc1c[nH]c2ccccc12)C(=O)N(C)[C@@H](CCCC)C(=O)N[C@@H](CC(=O)O)C(=O)N[C@@H](Cc1ccccc1)C(N)=O)NC(=O)[C@H](Cc1ccc(CS(=O)(=O)O)cc1)NC(C)=O [Example 18] (X1-W[NMeNle]DF-NH2)", "guinea pig pancreatic acini", "642 nM"),
    ("CCCC[C@H](NC(=O)[C@H](Cc1ccc(CS(=O)(=O)O)cc1)NC(C)=O)C(=O)NCC(=O)N[C@@H](Cc1c[nH]c2ccccc12)C(=O)N[C@@H](CCCC)C(=O)N[C@@H](CC(=O)O)C(=O)N[C@@H](Cc1ccccc1)C(N)=O [Example 13] (Ac-[Phe(4-CH2SO3H)][Nle]GW[Nle]DF-NH2)", "guinea pig pancreatic acini", "0.33 nM"),
    ("CCCC[C@H](NC(=O)[C@H](Cc1ccc(OS(=O)(=O)O)cc1)NC(=O)OC(C)(C)C)C(=O)NCC(=O)N[C@@H](Cc1c[nH]c2ccccc12)C(=O)N(C)[C@@H](CCCC)C(=O)N[C@@H](CC(=O)O)C(=O)N[C@@H](Cc1ccccc1)C(N)=O [Example 16] (Boc-[sY][Nle]GW[NMeNle]DF-NH2)", "guinea pig pancreatic acini", "377 nM"),
    ("CCCC[C@@H](NC(=O)CC(=O)N[C@@H](Cc1c[nH]c2ccccc12)C(=O)N(C)[C@@H](CCCC)C(=O)N[C@@H](CC(=O)O)C(=O)N[C@@H](Cc1ccccc1)C(N)=O)NC(=O)[C@H](Cc1ccc(OS(=O)(=O)O)cc1)NC(=O)OC(C)(C)C", "guinea pig pancreatic acini", "0.35 nM"),
]

---

Listed next: entries and their corresponding pEC50.
system: guinea pig ileum; experiment: Contraction-producing activity on guinea pig ileum; conditions: isolated ileum strips, Tyrode's solution, 37° C.; mean ± s.e.m. of three experiments; read-out: Contraction-producing activity on guinea pig ileum, Agonist activity EC50
pEC50: −log10 of the molar value. *1 amine or outer side, *2 acyl side, *3 side chain or, on linkers, in order; H or OH if unused. Where a SMILES comes first, the peptide text is derived from it. [ ]: non-standard residue; d: D form. The star is where a group is joined. X1 = CCCC[C@@H](NC(=O)CC(=O)*)NC(=O)[C@H](Cc1ccc(CS(=O)(=O)O)cc1)NC(C)=O; Phe(4-CH2SO3H) = N[C@@H](Cc1ccc(CS(=O)(=O)O)cc1)C(=O)O; X2 = O=C([C@@H](Cc1ccc(CS(=O)(=O)O)cc1)N[*:1])[*:2]; sY = N[C@@H](Cc1ccc(OS(=O)(=O)O)cc1)C(=O)O; NMeNle = CCCC[C@H](NC)C(=O)O; Nle = CCCC[C@H](N)C(=O)O; Boc = CC(C)(C)OC(=O)*
measuredParameter: pEC50

# compound, valueOperator, recordedNumber
rows = [
    ("CCCC[C@H](NC(=O)[C@H](Cc1c[nH]c2ccccc12)NC(=O)CNC(=O)[C@H](CCCC)NC(=O)[C@@H](Cc1ccc(CS(=O)(=O)O)cc1)NC(C)=O)C(=O)N[C@@H](CC(=O)O)C(=O)N[C@@H](Cc1ccccc1)C(N)=O [Example 14] (Ac-[X2][Nle]GW[Nle]DF-NH2)", "=", 7.74),
    ("CCCC[C@H](NC(=O)[C@H](Cc1ccc(OS(=O)(=O)O)cc1)NC(=O)OC(C)(C)C)C(=O)NCC(=O)N[C@@H](Cc1c[nH]c2ccccc12)C(=O)N(C)[C@@H](CCCC)C(=O)N[C@@H](CC(=O)O)C(=O)N[C@@H](Cc1ccccc1)C(N)=O [Example 16] (Boc-[sY][Nle]GW[NMeNle]DF-NH2)", "<", 6.00),
    ("CCCC[C@@H](NC(=O)CC(=O)N[C@@H](Cc1c[nH]c2ccccc12)C(=O)N(C)[C@@H](CCCC)C(=O)N[C@@H](CC(=O)O)C(=O)N[C@@H](Cc1ccccc1)C(N)=O)NC(=O)[C@H](Cc1ccc(OS(=O)(=O)O)cc1)NC(=O)OC(C)(C)C [Example 15]", "=", 9.00),
    ("CCCC[C@@H](NC(=O)CC(=O)N[C@@H](Cc1c[nH]c2ccccc12)C(=O)N(C)[C@@H](CCCC)C(=O)N[C@@H](CC(=O)O)C(=O)N[C@@H](Cc1ccccc1)C(N)=O)NC(=O)[C@H](Cc1ccc(CS(=O)(=O)O)cc1)NC(C)=O [Example 18] (X1-W[NMeNle]DF-NH2)", "<", 6.00),
    ("CCCC[C@H](NC(=O)[C@H](Cc1ccc(CS(=O)(=O)O)cc1)NC(C)=O)C(=O)NCC(=O)N[C@@H](Cc1c[nH]c2ccccc12)C(=O)N[C@@H](CCCC)C(=O)N[C@@H](CC(=O)O)C(=O)N[C@@H](Cc1ccccc1)C(N)=O [Example 13] (Ac-[Phe(4-CH2SO3H)][Nle]GW[Nle]DF-NH2)", "=", 8.42),
]
